- Test system: Heart
- assayName: Biodistribution in heart of B16F0 tumor bearing C57BL/6J mouse at 0.37-0.74 MBq, iv after 1 hr
- Format: ADME, organism-based
- conditionsUsed: in vivo
resultType: Drug uptake (% ID/g)

The cases that follow already have their Drug uptake on record.
compound | Drug uptake / % ID/g
CCN(CC)CCNC(=O)c1ccccc1[123I] | 2
CCN(CC)CCNC(=O)c1cc([123I])c(NS(=O)(=O)c2ccc(C)cc2)cc1OC | 0.28
O=C(NCCCCN1CC2CCC1C2)c1ccc([123I])cc1 (stereo not drawn) | 1.05
COc1cc(NC(C)=O)c([123I])cc1C(=O)NCCCCN(C)C(C)C | 0.84
CCCN(CCC)CCCCNC(=O)c1ccc([123I])cc1 | 1.9

[a] COc1cc(NC(C)=O)c([123I])cc1C(=O)NCCCCN1CC2CCC1C2 (stereo not drawn)
[b] CCN(CC)CCNC(=O)c1cc([123I])c(NS(C)(=O)=O)cc1OC
[c] CCCCNCCCCNC(=O)c1cc([123I])c(NC(C)=O)cc1OC
Order the 3 compounds from highest to lowest Drug uptake. Order the labels as requested and list them. a, c, b

====

- System: Blood
- assayName: Biodistribution in blood of B16F0 tumor bearing C57BL/6J mouse at 0.37-0.74 MBq, iv after 24 hrs
- Format: ADME, organism-based
- conditionsUsed: in vivo
resultType: Drug uptake (% ID/g)

compound | Drug uptake [% ID/g]
CCCN(CCC)CCCCNC(=O)c1ccc([123I])cc1 | 0.08

[P] O=C(NC1CCN(CCF)CC1)c1ccc(I)cc1
[Q] COc1cc(NC(C)=O)c([123I])cc1C(=O)NCCCCN(C)C(C)C
Pick the one with the larger Drug uptake: P vs Q Write down the label of the entry you select. P

[a] CCN(CC)CCNC(=O)c1cc([123I])c(NC(C)=O)cc1OC
[b] O=C(NCCCCN1CC2CCC1C2)c1ccc([123I])cc1 (stereo not drawn)
[c] CCCCNCCCCNC(=O)c1cc([123I])c(NC(C)=O)cc1OC
[d] CCCN(CCC)CCCCNC(=O)c1cc([123I])c(NC(C)=O)cc1OC
Rank the items in ascending order with respect to Drug uptake. Order the labels as requested and list them. b, c, a, d

[1] CCN(CC)CCNC(=O)c1ccccc1[123I]
[2] COc1cc(NC(C)=O)c([123I])cc1C(=O)NCCCCN1CC2CCC1C2 (stereo not drawn)
[3] O=C(NC1CCN(CCO)CC1)c1ccc([123I])cc1
Order the 3 compounds from highest to lowest Drug uptake. Order the labels as requested and list them. 1, 3, 2
(1: 0.06 % ID/g, 3: 0.04 % ID/g, 2: 0.02 % ID/g)

[a] CCN(CC)CCNC(=O)c1cc([123I])c(NS(C)(=O)=O)cc1OC
[b] CCN(CC)CCNC(=O)c1cc([123I])c(NS(=O)(=O)c2ccc(C)cc2)cc1OC
[c] CCCCN(C)CCCCNC(=O)c1cc([123I])c(NC(C)=O)cc1OC
Order the 3 compounds from highest to lowest Drug uptake. Order the labels as requested and list them. c, b, a

====

- Test system: Lung
- assayName: Biodistribution in lung of B16F0 tumor bearing C57BL/6J mouse at 0.37-0.74 MBq, iv after 24 hrs
- Type: ADME, organism-based
- conditionsUsed: in vivo
resultType: Drug uptake (% ID/g)

The cases that follow already have their Drug uptake on record.
molecule | testValue
CCCN(CCC)CCCCNC(=O)c1ccc([123I])cc1 | 0.39
O=C(NCCCCN1CC2CCC1C2)c1ccc([123I])cc1 (stereo not drawn) | 0.4
CCN(CC)CCNC(=O)c1cc([123I])c(NS(=O)(=O)c2ccc(C)cc2)cc1OC | 0.05
COc1cc(NC(C)=O)c([123I])cc1C(=O)NCCCCN(C)C(C)C | 0.06

[I] COc1cc(NC(C)=O)c([123I])cc1C(=O)NCCCCN1CC2CCC1C2 (stereo not drawn)
[II] CCCN(CCC)CCCCNC(=O)c1cc([123I])c(NC(C)=O)cc1OC
# return whichever of I and II has the smaller Drug uptake Write down the label of the entry you select. I

[A] CCN(CC)CCNC(=O)c1ccccc1[123I]
[B] O=C(NC1CCN(CCF)CC1)c1ccc(I)cc1
# return whichever of A and B has the smaller Drug uptake Write down the label of the entry you select. A

[A] CCCCN(C)CCCCNC(=O)c1cc([123I])c(NC(C)=O)cc1OC
[B] CCCCNCCCCNC(=O)c1cc([123I])c(NC(C)=O)cc1OC
[C] O=C(NC1CCN(CCO)CC1)c1ccc([123I])cc1
Rank the items in ascending order with respect to Drug uptake. Order the labels as requested and list them. B, A, C

[P] CCN(CC)CCNC(=O)c1cc([123I])c(NS(C)(=O)=O)cc1OC
[Q] CCN(CC)CCNC(=O)c1cc([123I])c(NC(C)=O)cc1OC
Pick the one with the larger Drug uptake: P vs Q Write down the label of the entry you select. Q

====

- assayName: Biodistribution in melanoma of B16F0 tumor bearing C57BL/6J mouse at 0.37-0.74 MBq, iv after 1 hr
- Type: ADME, organism-based, B16-F0
- conditionsUsed: in vivo
resultType: Drug uptake (% ID/g)

The cases that follow already have their Drug uptake on record.
molecule | unitsOfMeasure | Drug uptake
CCCCN(C)CCCCNC(=O)c1cc([123I])c(NC(C)=O)cc1OC | % ID/g | 5.6
CCN(CC)CCNC(=O)c1cc([123I])c(NS(C)(=O)=O)cc1OC | % ID/g | 5.4
COc1cc(NC(C)=O)c([123I])cc1C(=O)NCCCCN1CC2CCC1C2 (stereo not drawn) | % ID/g | 3.4
CCCCNCCCCNC(=O)c1cc([123I])c(NC(C)=O)cc1OC | % ID/g | 3.4
O=C(NC1CCN(CCO)CC1)c1ccc([123I])cc1 | % ID/g | 5.9

[I] CCN(CC)CCNC(=O)c1ccccc1[123I]
[II] O=C(NCCCCN1CC2CCC1C2)c1ccc([123I])cc1 (stereo not drawn)
[III] O=C(NC1CCN(CCF)CC1)c1ccc(I)cc1
Order the 3 molecules from highest to lowest Drug uptake. Order the labels as requested and list them. III, I, II
(III: 10.9 % ID/g, I: 7.1 % ID/g, II: 3.8 % ID/g)

[1] CCCN(CCC)CCCCNC(=O)c1cc([123I])c(NC(C)=O)cc1OC
[2] COc1cc(NC(C)=O)c([123I])cc1C(=O)NCCCCN(C)C(C)C
# return whichever of 1 and 2 has the smaller Drug uptake Write down the label of the entry you select. 2

[a] CCN(CC)CCNC(=O)c1cc([123I])c(NC(C)=O)cc1OC
[b] CCCN(CCC)CCCCNC(=O)c1ccc([123I])cc1
# return whichever of a and b has the smaller Drug uptake Write down the label of the entry you select. b

====

- assayName: Biodistribution in melanoma of B16F0 tumor bearing C57BL/6J mouse at 0.37-0.74 MBq, iv after 24 hrs
- Type: ADME, organism-based, B16-F0
- conditionsUsed: in vivo
resultType: Drug uptake (% ID/g)

The cases that follow already have their Drug uptake on record.
compound | Drug uptake / % ID/g
CCN(CC)CCNC(=O)c1cc([123I])c(NS(=O)(=O)c2ccc(C)cc2)cc1OC | 1.4
O=C(NCCCCN1CC2CCC1C2)c1ccc([123I])cc1 (stereo not drawn) | 3.4
COc1cc(NC(C)=O)c([123I])cc1C(=O)NCCCCN1CC2CCC1C2 (stereo not drawn) | 1.4

[A] CCCN(CCC)CCCCNC(=O)c1ccc([123I])cc1
[B] CCN(CC)CCNC(=O)c1ccccc1[123I]
Pick the one with the larger Drug uptake: A vs B Write down the label of the entry you select. A
(A: 6.9 % ID/g, B: 3 % ID/g)

====

- assayName: Lipophilicity, log P at pH 7.5
- Assay type: physicochemical
- conditionsUsed: buffer
resultType: logD

The cases that follow already have their logD on record.
chemSmiles | testValue
COc1cc(NC(C)=O)c(I)cc1C(=O)NCCCCN(C)C(C)C | 0.75
CCN(CC)CCNC(=O)c1cc(I)c(NC(C)=O)cc1OC | 1.54

[A] CCN(CC)CCNC(=O)c1cc(I)c(NS(=O)(=O)c2ccc(C)cc2)cc1OC
[B] CCN(CC)CCNC(=O)c1cc(I)c(NS(C)(=O)=O)cc1OC
# return whichever of A and B has the smaller logD Write down the label of the entry you select. B
(B: 0.82, A: 1.95)

====

- assayName: Displacement of [3H]DTG from sigma 2 receptor in guinea pig brain membrane
- Type: cell membranes, Cavia porcellus
resultType: Ki (µM)

[I] CCCN(CCC)CCCCNC(=O)c1ccc(I)cc1
[II] COc1cc(NC(C)=O)c(I)cc1C(=O)NCCCCN(C)C(C)C
[III] CCN(CC)CCNC(=O)c1cc(I)c(NS(C)(=O)=O)cc1OC
Rank the listed compounds by Ki, largest first. Order the labels as requested and list them. III, II, I
